- target under test: Immunoglobulin lambda variable 6-57 (Homo sapiens)
- protocol details: Stabilization of AL patient derived full length fluorescein-labeled IGLV6-57 expressed in Escherichia coli BL21 (DE3) measured after 24 hrs by proteolysis coupled-fluorescence polarization assay
Mark True only for EC50 values smaller than 2 µM; exact matches and larger values are False.

Look over these answered cases.
CCN(C)c1ccc2c(C)cc(=O)oc2c1 | False
CCN(CC)c1ccc2c(C)c(CCN3C(=O)NC4(CCN(c5nccn6ncnc56)CC4)C3=O)c(=O)oc2c1 | True
Cc1cc(=O)oc2cc(OC(C)Cc3ccccc3)ccc12 (centres undefined) | False
CCN(CC)c1ccc2c(C)c(CCOC(=O)NCc3cccc(C(N)=O)c3)c(=O)oc2c1 | True
C#CCN(CC)c1ccc2c(C)cc(=O)oc2c1 | False
CCN(CC)c1ccc2c(C)c(CCN3C(=O)NC4(CCN(S(=O)(=O)c5ccccc5)C4)C3=O)c(=O)oc2c1 (centres undefined) | True

## Task is_below(EC50, 2 µM) for CCN(CC)c1ccc2c(C)c(CCOC(=O)NCc3cccc(-c4ccc[nH]c4=O)c3)c(=O)oc2c1 ?
## Result True

## Task is_below(EC50, 2 µM) for CCN(CC)c1ccc2c(C)c(CCN3C(=O)NC4(CCN(c5ncccn5)C4)C3=O)c(=O)oc2c1 (centres undefined) ?
## Result True

## Task is_below(EC50, 2 µM) for CCN(CC)c1ccc2c(C)c(CCN3C(=O)NC4(CCN(c5nccn6ccnc56)CC4)C3=O)c(=O)oc2c1 ?
## Result True

## Task is_below(EC50, 2 µM) for CCN(CC)c1ccc2c(C)c(CCOC(=O)NCC3CCCNC3)c(=O)oc2c1 (centres undefined) ?
## Result True

###

EC50 values by entry
- target under test: Immunoglobulin lambda variable 6-57 (Homo sapiens, UniProt P01721, F49Y/T46L)
- Sequence (P01721 whole entry, looked up, stated change not applied): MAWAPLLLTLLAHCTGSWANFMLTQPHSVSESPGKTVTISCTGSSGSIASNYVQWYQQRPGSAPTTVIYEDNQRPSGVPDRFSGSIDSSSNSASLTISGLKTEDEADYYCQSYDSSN
- protocol details: Stabilization of AL patient derived fluorescein-labeled IGLV6-57 T46L/F49Y mutant measured after 24 hrs by proteolysis coupled-fluorescence polarization assay
Write the number in nM without appending the unit.

Example cases with answers are listed next.
CCN(CC)c1ccc2c(C)c(CCOC(=O)NCc3cccc(NC(C)=O)c3)c(=O)oc2c1 | 194
CCN(CC)c1ccc2c(C)c(CCN3C(=O)NC4(CCN(C(=O)c5ccc[nH]c5=O)CC4)C3=O)c(=O)oc2c1 | 2700
CCN(CC)c1ccc2c(C)c(CCN3C(=O)NC4(CCN(c5ncnc6[nH]ncc56)CC4)C3=O)c(=O)oc2c1 | 124
Cc1cc(=O)oc2cc(OC(C)Cc3ccccc3)ccc12 (stereo not given) | 1380

## Task Using the record for Cc1c(CCN2CC3(CCN(c4nccn5ccnc45)CC3)NC2=O)c(=O)oc2cc(OCC(C)c3ccccc3)ccc12 (stereo in doubt; 84b) , report its EC50.
## Result 3.9

###

EC50 values by entry
- target under test: Immunoglobulin lambda variable 6-57 (Homo sapiens, UniProt P01721, F49Y/T46L)
- protocol details: Stabilization of AL patient derived fluorescein-labeled IGLV6-57 T46L/F49Y mutant measured after 24 hrs by proteolysis coupled-fluorescence polarization assay
Write the number in nM without appending the unit.

Example cases with answers are listed next.
CCN(CC)c1ccc2c(C)c(CCOC(=O)NCC3CCCNC3)c(=O)oc2c1 (centres undefined) | 8800
CCN(CC)c1ccc2c(C)c(CCOC(=O)NCc3cccc(C(N)=O)c3)c(=O)oc2c1 | 228
Cc1c(CCN2CC3(CCN(c4nccn5ccnc45)CC3)NC2=O)c(=O)oc2cc(OCC(C)c3ccccc3)ccc12 (stereo in doubt; 84a) | 8.3

Next:
## Task Using the record for CCN(CC)c1ccc2c(C)c(CCN3CC4(CCN(c5ncnc6[nH]ncc56)CC4)NC3=O)c(=O)oc2c1 , report its EC50.
## Result 4.7

###

- target under test: Immunoglobulin lambda variable 6-57 (Homo sapiens, UniProt P01721, F49Y/T46L)
- protocol details: Stabilization of AL patient derived fluorescein-labeled IGLV6-57 T46L/F49Y mutant measured after 24 hrs by proteolysis coupled-fluorescence polarization assay
EC50 values by entry
Write the number in nM without appending the unit.

CCN(CC)c1ccc2c(C)c(CCN3C(=O)NC4(CCN(c5ncnc6[nH]cnc56)C4)C3=O)c(=O)oc2c1 (stereo not drawn) | 355
CCN(CC)c1ccc2c(C)c(CCN3C(=O)NC4(CCN(c5nccn6ccnc56)CC4)C3=O)c(=O)oc2c1 | 29.8
CCN(CC)c1ccc2c(C)c(CCOC(=O)NCc3cccc(-c4ccc[nH]c4=O)c3)c(=O)oc2c1 | 26.2

Next:
## Task Using the record for CCN(CC)c1ccc2c(C)c(CCN3C(=O)NC4(CCN(S(=O)(=O)c5cccnc5)C4)C3=O)c(=O)oc2c1 (stereo not drawn) , report its EC50.
## Result 4370

###

- target under test: Immunoglobulin lambda variable 6-57 (Homo sapiens)
- protocol details: Stabilization of AL patient derived full length fluorescein-labeled IGLV6-57 expressed in Escherichia coli BL21 (DE3) measured after 24 hrs by proteolysis coupled-fluorescence polarization assay
Mark t only for EC50 values smaller than 300 nM; exact matches and larger values are f.

Look over these answered cases.
CCN(CC)c1ccc2c(C)c(CCN3C(=O)NC4(CCN(S(=O)(=O)c5cccnc5)C4)C3=O)c(=O)oc2c1 (configuration not stated) | f
CCN(CC)c1ccc2c(C)c(CCN3C(=O)NC4(CCN(c5ncnc6[nH]cnc56)C4)C3=O)c(=O)oc2c1 (configuration not stated) | f
CCN(CC)c1ccc2c(C)c(CCN3CC4(CCN(c5ncccn5)CC4)NC3=O)c(=O)oc2c1 | t
CCN(CC)c1ccc2c(C)c(CCN3C(=O)NC4(CCN(c5ncnc6[nH]ncc56)CC4)C3=O)c(=O)oc2c1 | t
CCN(CC)c1ccc2c(C)c(CCN3C(=O)NC4(CCN(C(=O)c5c[nH]cn5)C4)C3=O)c(=O)oc2c1 (configuration not stated) | f
Cc1c(CCN2CC3(CCN(c4nccn5ccnc45)CC3)NC2=O)c(=O)oc2cc(OCC(C)c3ccccc3)ccc12 (stereo in doubt; 84a) | t
CCN(CC)c1ccc2c(C)c(CCN3CC4(CCN(c5nccn6ccnc56)CC4)NC3=O)c(=O)oc2c1 | t
CCCN(CC)c1ccc2c(C)cc(=O)oc2c1 | f
CCN(CC)c1ccc2c(C)c(CCN3CC4(CCN(c5ncnc6[nH]ncc56)CC4)NC3=O)c(=O)oc2c1 | t

## Task is_below(EC50, 300 nM) for CCN(CC)c1ccc2c(C)c(CCOC(=O)N(C)CCc3cccnc3)c(=O)oc2c1 ?
## Result f

###

- target under test: Immunoglobulin lambda variable 6-57 (Homo sapiens)
- protocol details: Stabilization of AL patient derived full length fluorescein-labeled IGLV6-57 expressed in Escherichia coli BL21 (DE3) measured after 24 hrs by proteolysis coupled-fluorescence polarization assay
pEC50: −log10 of the molar value.
Rule: pEC50 under 6 gives f, otherwise t.

Cc1cc(=O)oc2cc(OCC(C)c3ccccc3)ccc12 (centres undefined) | t

## Task # check: pEC50 of CCN(CC)c1ccc2c(C)c(CCOC(=O)NCc3cccc(NC(C)=O)c3)c(=O)oc2c1 is greater than or equal to 6
## Result t

## Task # check: pEC50 of Cc1c(CCN2CC3(CCN(c4nccn5ccnc45)CC3)NC2=O)c(=O)oc2cc(OCC(C)c3ccccc3)ccc12 (stereo in doubt; 84b) is greater than or equal to 6
## Result t

###

- target under test: Immunoglobulin lambda variable 6-57 (Homo sapiens, UniProt P01721, F49Y/T46L)
- protocol details: Stabilization of AL patient derived fluorescein-labeled IGLV6-57 T46L/F49Y mutant measured after 24 hrs by proteolysis coupled-fluorescence polarization assay
pEC50: −log10 of the molar value.
Rule: pEC50 under 6 gives N, otherwise Y.

## Task # check: pEC50 of CCN(CC)c1ccc2c(C)c(CCN3C(=O)NC4(CCN(c5ncnc6[nH]cnc56)CC4)C3=O)c(=O)oc2c1 is greater than or equal to 6
## Result Y

###

EC50 values by entry
- target under test: Immunoglobulin lambda variable 6-57 (Homo sapiens, UniProt P01721)
- protocol details: Stabilization of AL patient derived full length fluorescein-labeled IGLV6-57 expressed in Escherichia coli BL21 (DE3) measured after 24 hrs by proteolysis coupled-fluorescence polarization assay
Write the number in nM without appending the unit.

C#CCN(CC#C)c1ccc2c(C)cc(=O)oc2c1 | 2000
CCN(CC)c1ccc2c(C)c(CCOC(=O)NCc3cncc(NC(C)=O)c3)c(=O)oc2c1 | 816

## Task Using the record for CCN(CC)c1ccc2c(C)c(CCN3C(=O)NC4(CCN(C(=O)c5ccc[nH]c5=O)CC4)C3=O)c(=O)oc2c1 , report its EC50.
## Result 3970

## Task Using the record for CCN(c1ccc2c(C)cc(=O)oc2c1)C(C)C , report its EC50.
## Result 9700

## Task Using the record for CCN(CC)c1ccc2c(C)c(CCN3C(=O)NC4(CCN(c5ncnc6[nH]cnc56)CC4)C3=O)c(=O)oc2c1 , report its EC50.
## Result 110

## Task Using the record for CCN(CC)c1ccc2c(C)c(CCOC(=O)NCCc3cccnc3)c(=O)oc2c1 , report its EC50.
## Result 1110
